Please go through the items and note down their IC50.
Target under test: Adrenergic receptor alpha-1 (Rattus norvegicus, UniProt P15823+P23944+P43140)
Test protocol: Displacement of [3H]prazosin from alpha-1 adrenoceptors in whole rat brain membranes
Format: cell membranes
Reply with just the number (in nM).

query: // query IC50 value for entry Cl.Cl.OCCN1CCN(C2CC(c3ccc(F)cc3)c3cc(Cl)ccc32)CC1 (single isomer, unassigned; (-))
result: 210

query: // query IC50 value for entry O=C(O)/C=C\C(=O)O.O=C(O)/C=C\C(=O)O.O=C1NCCN1CCCN1CCN(C2CC(c3ccc(F)cc3)c3cc(Cl)ccc32)CC1 (configuration not stated)
result: 73

query: // query IC50 value for entry Cc1ccc2c(c1)C(c1ccc(F)cc1)CC2N1CCN(CCO)CC1.O=C(O)/C=C\C(=O)O.O=C(O)/C=C\C(=O)O (configuration not stated)
result: 270

query: // query IC50 value for entry Fc1ccc(C2CC(N3CCN(CCN4CCCN=C4S)CC3)c3ccc(Cl)cc32)cc1.O=C(O)/C=C\C(=O)O.O=C(O)/C=C\C(=O)O (configuration not stated)
result: 170

query: // query IC50 value for entry Cl.Cl.Fc1ccc(C2CC(N3CCN(CCN4CCCNC4=S)CC3)c3ccc(Cl)cc32)cc1 (stereo in doubt; (+)-39)
result: 350

query: // query IC50 value for entry CN1CCN(CCN2CCN(C3CC(c4ccc(F)cc4)c4cc(Cl)ccc43)CC2)C1=O.O=C(O)/C=C\C(=O)O (configuration not stated)
result: 600

query: // query IC50 value for entry CC(C)N1CCN(CCN2CCN(C3CC(c4ccc(F)cc4)c4cc(C(F)(F)F)ccc43)CC2)C1=O.O=C(O)/C=C\C(=O)O.O=C(O)/C=C\C(=O)O (configuration not stated)
result: 370

query: // query IC50 value for entry CC(C)N1CCN(CCN2CCN(C3CC(c4ccc(Cl)cc4)c4cc(Cl)ccc43)CC2)C1=O.O=C(O)/C=C\C(=O)O (configuration not stated)
result: 180

query: // query IC50 value for entry Cl.Cl.OCCN1CCN(C2CC(c3ccc(F)cc3)c3cc(Cl)ccc32)CC1 (stereo in doubt; 10)
result: 230

query: // query IC50 value for entry Cc1ccc2c(c1)C(c1ccc(F)cc1)CC2N1CCN(CCN2CCN(C(C)C)C2=O)CC1.O=C(O)/C=C\C(=O)O.O=C(O)/C=C\C(=O)O (configuration not stated)
result: 120

query: // query IC50 value for entry OCCN1CCN(C2CC(c3ccc(F)cc3)c3cc(F)ccc32)CC1 (configuration not stated)
result: 150

query: // query IC50 value for entry O=C(O)/C=C\C(=O)O.O=C(O)/C=C\C(=O)O.O=C1NCCCN1CCN1CCN(C2CC(c3ccc(F)cc3)c3cc(Cl)ccc32)CC1 (single isomer, unassigned; (-))
result: 62

query: // query IC50 value for entry Cl.Cl.O=C1CCCN1CCN1CCN(C2CC(c3ccc(F)cc3)c3cc(Cl)ccc32)CC1 (configuration not stated)
result: 370

query: // query IC50 value for entry CC(C)N1CCN(CCN2CCN(C3CC(c4ccc(F)cc4)c4cc(Cl)ccc43)CC2)C1=O.O=C(O)/C=C\C(=O)O.O=C(O)/C=C\C(=O)O (stereo in doubt; (+)-20)
result: 340

query: // query IC50 value for entry Cl.Cl.Fc1ccc(C2CC(N3CCN(CCN4CCCNC4=S)CC3)c3ccc(Cl)cc32)cc1 (stereo in doubt; (-)-39)
result: 67

query: // query IC50 value for entry O=C(O)/C=C\C(=O)O.O=C(O)/C=C\C(=O)O.O=c1[nH]c2ccccc2c(=O)n1CCN1CCN(C2CC(c3ccc(F)cc3)c3cc(Cl)ccc32)CC1 (configuration not stated)
result: 78

query: // query IC50 value for entry Cc1nc2sccn2c(=O)c1CCN1CCN(C2CC(c3ccc(F)cc3)c3cc(Cl)ccc32)CC1.O=C(O)/C=C\C(=O)O.O=C(O)/C=C\C(=O)O (configuration not stated)
result: 24

query: // query IC50 value for entry O=C(O)/C=C\C(=O)O.O=C(O)/C=C\C(=O)O.OCCN1CCN(C2CC(c3ccc(F)cc3)c3cc(C(F)(F)F)ccc32)CC1 (configuration not stated)
result: 380

query: // query IC50 value for entry O=C(O)/C=C\C(=O)O.O=C(O)/C=C\C(=O)O.OCCN1CCN(C2CC(c3ccc(F)cc3)c3cccc(Cl)c32)CC1 (configuration not stated)
result: 38

query: // query IC50 value for entry CC(C)N1CCN(CCN2CCN(C3CC(c4ccc(F)cc4)c4cc(Cl)ccc43)CC2)C1=O.O=C(O)/C=C\C(=O)O.O=C(O)/C=C\C(=O)O (stereo in doubt; 20)
result: 260

query: // query IC50 value for entry CC(C)N1CCN(CCN2CCN(C3CC(c4cccc(F)c4)c4cc(Cl)ccc43)CC2)C1=O.O=C(O)/C=C\C(=O)O (configuration not stated)
result: 970

query: // query IC50 value for entry Fc1ccc(C2CC(N3CCN(CCN4CCCN=C4S)CC3)c3ccc(F)cc32)cc1.O=C(O)/C=C\C(=O)O.O=C(O)/C=C\C(=O)O (configuration not stated)
result: 110

Origin of values: ChEMBL document CHEMBL1126803
